Measured log10(FACS M2-HK MFI) values are reported for all entries that follow.
Molecular target: M2 protein of influenza A/Hong Kong/483/97 (H5N1) (Influenza A virus A/Hong Kong/483/97)
QUANTITY NAME: log10(FACS M2-HK MFI) (log10 of the value in MFI)

- BINDER: "3241_G23 (antibody, V domains shown) VH: QVQLQQSGPGLVKPSQTLSLTCTVSGGPVSGGGYSWNWIRQRPGQGLEWVGFMFHSGSPRYNPTLKSRITISVDTSKNLVSLKLSSVTAADTAVYFCARVGQMDKYYAMDVWGQGTTVTVSS VL: DIQMTQSPSSLSSSVGDRVTITCRASQSIGAYVNWYQQKAGKAPQVLIFGASNLQSGVPSRFSGSGSGTDFTLTISSLQPEDFATYFCQQTYSTPITFGQGTRLEIK"
  QUANTITY NAME: "log10(FACS M2-HK MFI)"
  NUMERIC READOUT: 3.23
- BINDER: "3255_J06 (antibody, V domains shown) VH: QVQLQESGPGLVKPSETLSLTCTVSGASISSDYWSWIRLPPGKGLEWIGYIYNRGSTKYTPSLKSRVTISLDTAENQFSLRLRSVTAADTAVYYCARHVGGHTYGIDYWGQGTLVTVSS VL: DIQMTQSPSSLSASVGDRVTITCRASQSISNYLNWYQHKPGEAPKLLNYAASSLQSGVPSRFSASGSGTDFTLSISGLQPEDFATYYCQQSYNTPITFGPGTRLEIK"
  QUANTITY NAME: "log10(FACS M2-HK MFI)"
  NUMERIC READOUT: 2.65
- BINDER: "3248_P18 (antibody, V domains shown) VH: QVQLQESGPGLVKPSETLSLTCTVSGGSISAYHWSWIRQPPGKGLEWIGHIFDSGSTYYNPSLKSRVTISLDASKNQLSLRLTSVTASDTAIYYCARPLGSRYYYGMDVWGQGTTVTVSS VL: DIQMTQSPSSLSASVGDRVTITCRASQSISRYLNWYQQKPGKAPKLLIYGASTLQNGAPSRFSGSGSGTDFTLTISSLQPEDSATYLCQQSYSVPAFGGGTKVEVK"
  QUANTITY NAME: "log10(FACS M2-HK MFI)"
  NUMERIC READOUT: 2.99
- BINDER: "3260_D19 (antibody, V domains shown) VH: DMQLVESGGGLVPPGGSLRLSCAASGFSVSDNYINWVRQAPGKGLDWVSVFYSADRTSYADSVKGRFTVSSHDSKNTVYLQMNSLRAEDTAVYYCARVQKSYYGMDVWGQGTTVTVSS VL: GIQMTQSPSSLSASVGDRVTITCRASQSISRYLNWYLQKPGKAPKLLISGASSLQSGVPSRFSGTGSGTEFTLTISSLQPEDFATYYCQQTFSIPLFGQGTKVEIK"
  QUANTITY NAME: "log10(FACS M2-HK MFI)"
  NUMERIC READOUT: 2.93
- BINDER: "3243_J07 (antibody, V domains shown) VH: QVQLQESGPGLLKPSDTLALTCTVSGGSITSDYWSWIRQPPGRGLDWIGFFYNGGSTKYNPSLKSRVTISADTSKNQLSLKLTSVTAADTGVYYCARHDVKFSGSYYVASWGQGTRVTVSS VL: DIQMTQSPSSLSASVGDRVTISCRASQSISTYLNWYQQQPGKAPKVLISGATNLQSGVPSRFSGSGSGTDFTLTISSLQPEDFATYYCQQSYNTPLIFGQGTKLEIK"
  QUANTITY NAME: "log10(FACS M2-HK MFI)"
  NUMERIC READOUT: 2.12
